- Tested on: myeloid leukemia patient primary cells Pat.11
- PROTOCOL DETAILS: cell viability (% survival relative to DMSO control); higher = less cytotoxic
- CONDITION SET: 1000 nM; 72 h
Recorded cell viability for the following compounds
Just the number please, in %, no unit attached.

[
  {
    "COMPOUND STRUCTURE": "CO[C@H]1C[C@@H]2CC[C@@H](C)[C@@](O)(O2)C(=O)C(=O)N2CCCC[C@H]2C(=O)O[C@H]([C@H](C)C[C@@H]2CC[C@@H](OCCO)[C@H](OC)C2)CC(=O)[C@H](C)/C=C(\\C)[C@@H](O)[C@@H](OC)C(=O)[C@H](C)C[C@H](C)/C=C/C=C/C=C/1C",
    "cell viability, %": 87.3
  },
  {
    "COMPOUND STRUCTURE": "c1cc(-c2cnn3cc(-c4ccc(OCCN5CCCCC5)cc4)cnc23)ccn1",
    "cell viability, %": 79.8
  },
  {
    "COMPOUND STRUCTURE": "O=C1C(SCCO)=C(SCCO)C(=O)c2ccccc21",
    "cell viability, %": 7.63
  },
  {
    "COMPOUND STRUCTURE": "Cc1c2c(=O)n(-c3ccccc3Cl)[nH]c2cc(=O)n1Cc1ccccn1",
    "cell viability, %": 99.3
  },
  {
    "COMPOUND STRUCTURE": "O=C(/C=C/c1ccc(O)c(O)c1)OCCc1ccccc1",
    "cell viability, %": 73.5
  }
]

Query: cell viability; subject: O=c1cc(N2CCOCC2)oc2c(-c3ccccc3)cccc12
91.1

Query: cell viability; subject: Cc1cc2c(C(C)C)c(O)c(O)c(C=O)c2c(O)c1-c1c(C)cc2c(C(C)C)c(O)c(O)c(C=O)c2c1O
84.6
